Values compiled from paper PMC4072508.

# testSystem: Bcl-xL (Homo sapiens, UniProt Q07817)
# Construct: myc-Bcl-xL SPOT array & FP; made in house
# Sequence (Q07817 with tags, fused parts or gaps): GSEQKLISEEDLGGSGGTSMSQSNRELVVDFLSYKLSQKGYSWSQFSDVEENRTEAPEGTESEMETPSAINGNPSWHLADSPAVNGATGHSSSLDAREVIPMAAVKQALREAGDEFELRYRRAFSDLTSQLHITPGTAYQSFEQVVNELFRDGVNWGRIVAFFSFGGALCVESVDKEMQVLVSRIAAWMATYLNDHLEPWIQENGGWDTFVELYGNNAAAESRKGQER
# experimentSummary: LUMIER full-length protein interaction
# Type: binding
# experimentalContext: LUMIER results for Bcl-xL; Z-score of the interaction relative to the Gaussian fit of the data; experiment 2, duplicate 1
measuredQuantity: z-score 2.1
Numbers only.

substance	z-score 2.1
WDR60 (GGRVKLVHSALIQLGDSLSHKGNEFW)	-0.08078
PRKD3 (IQENVDISTVYQIFADEVLGSGQFGI)	1.665
CCDC57 (QAGPVSSGLALRKLGDRVQLLNLLVT)	0.2364

Here is another substance to look at.
Kindly indicate its recorded z-score 2.1. Item: BAK1 (SSTMGQVGRQLAIIGDDINRRYDSEF)
1.064

----------
# testSystem: Bcl-xL (Homo sapiens)
# Construct: myc-Bcl-xL SPOT array & FP; made in house
# experimentSummary: Fluorescence polarization direct binding
# experimentalContext: benchmark classification of peptides newly characterized in this study; read-out: Binder class, Bcl-xL
pKd: −log10 of the molar value. No end group written: not given here.
measuredQuantity: pKd

Previously resolved entries follow.
substance	pKd
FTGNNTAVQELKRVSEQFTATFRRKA-NH2 [TUBB4Q]	5.00 to 6.00
AWGKFGGAFARYADEMKEIQERQ-NH2 [PURB]	< 5.00
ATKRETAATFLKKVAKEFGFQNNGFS-NH2 [NPLOC4]	< 5.00
ATRRLSGFLRTLADRLEGTKELL-NH2 [MINA]	5.00 to 6.00
KREKLVEILRNIGDERTMVFVET-NH2 [DDX4]	< 5.00
KKMTLSEIYRWIADNFPYYKNAG-NH2 [FOXJ2]	> 6.00

I need pKd for every entry listed below, if you could help.
1. LSDGLPVHLANIADELTQKKKMF-NH2 [AGBL2]
2. PILENPEILRKTADDFLNRIALT-NH2 [CCH]
3. LMARPAVALHFQSIADGFKEAVRYVL-NH2 [SOS2]

["< 5.00", "< 5.00", "< 5.00"]

I need pKd for every entry listed below, if you could help.
1. RSMVFARHLREVGDEFRSRHLNS-NH2 [POFUT2]
2. RVEQMAIQIKEVGDRVNYIKRSL-NH2 [TRPM7]
3. IIHKLAMQLRHIGDNIDHRMVRE-NH2 [PXT1]

1: > 6.00; 2: > 6.00; 3: > 6.00

----------
Please go through the items and note down their Kd.
# testSystem: Bcl-2 (Homo sapiens, UniProt P10415, DEL53-91)
# Construct: myc- Bcl-2 FP; made in house
# Sequence (P10415 with tags, fused parts or gaps DEL53-91): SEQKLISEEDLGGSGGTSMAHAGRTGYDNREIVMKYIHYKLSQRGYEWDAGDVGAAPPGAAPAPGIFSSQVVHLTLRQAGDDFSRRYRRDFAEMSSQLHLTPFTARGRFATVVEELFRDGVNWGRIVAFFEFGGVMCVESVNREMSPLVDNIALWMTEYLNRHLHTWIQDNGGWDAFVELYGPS
# experimentSummary: Fluorescence polarization direct binding
# experimentalContext: benchmark classification of peptides newly characterized in this study; read-out: Binder class, Bcl-2
No end group written: not given here.

substance	result
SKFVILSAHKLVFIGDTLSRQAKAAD-NH2 [BCAR1]	1000 to 10000 nM
GDSVLARMLRELGDSLRRPQLRL-NH2 [SLC19A1]	< 1000 nM
AIRPRAVELRHLADDFINGNKKK-NH2 [MCF2L2]	< 1000 nM
RVEQMAIQIKEVGDRVNYIKRSL-NH2 [TRPM7]	< 1000 nM
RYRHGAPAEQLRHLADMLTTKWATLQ-NH2 [PLEKHH1]	< 1000 nM

I need Kd for every entry listed below, if you could help.
1. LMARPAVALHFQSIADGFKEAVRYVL-NH2 [SOS2]
2. FIQSLAAMLKQYADKLEFMHILT-NH2 [CASP3]
3. THEEVVHLLRNAGDEVTITVEYL-NH2 [SNTG2]

1. 1000 to 10000 nM
2. < 1000 nM
3. > 10000 nM
